# Tested on: rodent lifetime carcinogenesis bioassay, tumor incidence TD50
# test.protocol: carcinogenic potency in animals, long-term in vivo studies, CPDB compilation (AID 1745844)
# test.settings: rat; strain Fischer 344; females; by gavage; site: kidney; lesion: mesenchymal neoplasm; dosed 30 weeks; study length 104 weeks
measured.property: TD50 (mg/kg/day)
Hi! Could you send only the number? It should be in mg/kg/day, unit omitted.

Q: Requested read-out: TD50. Entry: CC(=O)CN(N=O)C(N)=O
A: 0.32

====

# Test system: rodent lifetime carcinogenesis bioassay, tumor incidence TD50
# test.protocol: carcinogenic potency in animals, long-term in vivo studies, CPDB compilation (AID 1745844)
# test.settings: rat; strain Fischer 344; males; in feed; site: liver; lesion: bile duct adenoma + bile duct carcinoma; dosed 103 weeks; study length 104 weeks
measured.property: TD50 (mg/kg/day)
# number only, unit mg/kg/day dropped from output

Q: Please state recorded TD50 (tested on rodent lifetime carcinogenesis bioassay, tumor incidence TD50) of N=C1C=CC(=C(c2ccc(N)cc2)c2ccc(N)cc2)C=C1
A: 557

====

# Test system: rodent lifetime carcinogenesis bioassay, tumor incidence TD50
# test.protocol: carcinogenic potency in animals, long-term in vivo studies, CPDB compilation (AID 1745844)
# test.settings: mouse; strain B6C3F1; males; inhaled; site: preputial gland; lesion: squamous-cell carcinoma; dosed 60 weeks; study length 60 weeks
measured.property: TD50 (mg/kg/day)
Hi! Could you send only the number? It should be in mg/kg/day, unit omitted.

Q: May I ask what TD50 has been recorded for C=CC=C ?
A: 538

====

# Tested on: rodent lifetime carcinogenesis bioassay, tumor incidence TD50
# test.protocol: carcinogenic potency in animals, long-term in vivo studies, CPDB compilation (AID 1745844)
# test.settings: rat; strain Sprague-Dawley; females; i.p.; site: ear canal; lesion: squamous-cell carcinoma; dosed 36 weeks; study length 79 weeks
measured.property: TD50

Q: Report TD50 for S=P(N1CC1)(N1CC1)N1CC1 please.
A: 0.327 mg/kg/day

====

# Tested on: rodent lifetime carcinogenesis bioassay, tumor incidence TD50
# test.protocol: carcinogenic potency in animals, long-term in vivo studies, CPDB compilation (AID 1745844)
# test.settings: rat; strain Fischer 344; females; inhaled; site: mammary gland; lesion: adenoma + fibroadenoma; dosed 103 weeks; study length 105 weeks
measured.property: TD50 (mg/kg/day)
Answer format: numeric, mg/kg/day implied, no suffix.

Q: Which TD50 is listed for O=C(CCl)c1ccccc1 ?
A: 0.208

====

# Tested on: rodent lifetime carcinogenesis bioassay, tumor incidence TD50
# test.protocol: carcinogenic potency in animals, long-term in vivo studies, CPDB compilation (AID 1745844)
# test.settings: rat; strain Sprague-Dawley; males; in feed; site: lung; lesion: squamous-cell tumor; dosed 78 weeks; study length 95 weeks
measured.property: TD50 (mg/kg/day)
Kindly provide the numeric value in mg/kg/day only, without the unit symbol.

Q: For rodent lifetime carcinogenesis bioassay, tumor incidence TD50, provide TD50 of Clc1cc2c(cc1Cl)Oc1cc(Cl)c(Cl)cc1O2 please.
A: 7.96e-05

====

# Tested on: rodent lifetime carcinogenesis bioassay, tumor incidence TD50
# test.protocol: carcinogenic potency in animals, long-term in vivo studies, CPDB compilation (AID 1745844)
# test.settings: rat; strain Charles River CD (Sprague-Dawley); females; in feed; site: liver; lesion: hepatocellular carcinoma; dosed 97 weeks; study length 105 weeks
measured.property: TD50

Q: Could you tell me which TD50 is on file for CCOCCc1c(-c2ccccc2)nc(N)n2ncnc12 ?
A: 646 mg/kg/day

====

# Test system: rodent lifetime carcinogenesis bioassay, tumor incidence TD50
# test.protocol: carcinogenic potency in animals, long-term in vivo studies, CPDB compilation (AID 1745844)
# test.settings: rat; strain Charles River CD (Sprague-Dawley); males; in feed; site: adrenal gland; lesion: cortical adenoma; dosed 66 weeks; study length 66 weeks
measured.property: TD50

Q: Looking for the measured TD50 of CC/C(=C(/CC)c1ccc(O)cc1)c1ccc(O)cc1 , can you help?
A: 0.39 mg/kg/day

====

# Test system: rodent lifetime carcinogenesis bioassay, tumor incidence TD50
# test.protocol: carcinogenic potency in animals, long-term in vivo studies, CPDB compilation (AID 1745844)
# test.settings: rat; strain Sprague-Dawley; females; inhaled; site: mammary tissue, wider than the gland; lesion: several types; types named in the paper; dosed 104 weeks; study length 104 weeks
measured.property: TD50 (mg/kg/day)
Numbers only; they are read as mg/kg/day.

Q: For the molecule ClCCl , what TD50 is on record?
A: 37.8

====

# Tested on: rodent lifetime carcinogenesis bioassay, tumor incidence TD50
# test.protocol: carcinogenic potency in animals, long-term in vivo studies, CPDB compilation (AID 1745844)
# test.settings: rat; strain Fischer 344; males; inhaled; site: adrenal medulla; lesion: pheochromocytoma benign, bilateral + pheochromocytoma, benign; dosed 103 weeks; study length 104 weeks
measured.property: TD50
Number first, unit second: that is the form wanted.

Q: Tell me the measured TD50 of CC#N , please.
A: 16.9 mg/kg/day

====

# Test system: rodent lifetime carcinogenesis bioassay, tumor incidence TD50
# test.protocol: carcinogenic potency in animals, long-term in vivo studies, CPDB compilation (AID 1745844)
# test.settings: rat; strain Fischer 344; males; in feed; site: urinary bladder; lesion: squamous-cell carcinoma + squamous-cell papilloma; dosed 103 weeks; study length 104 weeks
measured.property: TD50

Q: I have this compound here, Nc1ccc(N)c2c1C(=O)c1c(N)ccc(N)c1C2=O , and I need its recorded TD50.
A: 803 mg/kg/day

====

# Test system: rodent lifetime carcinogenesis bioassay, tumor incidence TD50
# test.protocol: carcinogenic potency in animals, long-term in vivo studies, CPDB compilation (AID 1745844)
# test.settings: mouse; strain Swiss; males; by gavage; site: liver; lesion: hepatocellular carcinoma; dosed 52 weeks; study length 128 weeks
measured.property: TD50 (mg/kg/day)
Express it in mg/kg/day; write the number only.

Q: Fill blank: measured TD50 of the molecule CCCCC/C=N/N(C)C=O is ____.
A: 115

====

# System: rodent lifetime carcinogenesis bioassay, tumor incidence TD50
# test.protocol: carcinogenic potency in animals, long-term in vivo studies, CPDB compilation (AID 1745844)
# test.settings: rat; strain Donryu; females; in drinking water; site: several sites; sites named in the paper; lesion: squamous-cell carcinoma; dosed 51 weeks; study length 60 weeks
measured.property: TD50 (mg/kg/day)
# output: bare number, implied unit mg/kg/day

Q: // TD50 lookup, key: CCOC(=O)N(CC)N=O
A: 0.164

====

# Test system: rodent lifetime carcinogenesis bioassay, tumor incidence TD50
# test.protocol: carcinogenic potency in animals, long-term in vivo studies, CPDB compilation (AID 1745844)
# test.settings: mouse; strain B6C3F1; males; inhaled; site: all sites; lesion: hemangiosarcoma; dosed 82 weeks; study length 104 weeks
measured.property: TD50 (mg/kg/day)
Report the value in mg/kg/day with no unit label.

Q: State the recorded TD50 for this entry: C=CC=C
A: 45.5

====

# Test system: rodent lifetime carcinogenesis bioassay, tumor incidence TD50
# test.protocol: carcinogenic potency in animals, long-term in vivo studies, CPDB compilation (AID 1745844)
# test.settings: rat; strain Fischer 344; females; in feed; site: liver; lesion: hepatocellular carcinoma; dosed 78 weeks; study length 106 weeks
measured.property: TD50

Q: Bench note: what TD50 did [O-]/[N+](=N\O)c1ccccc1 show?
A: 20.1 mg/kg/day

====

# System: rodent lifetime carcinogenesis bioassay, tumor incidence TD50
# test.protocol: carcinogenic potency in animals, long-term in vivo studies, CPDB compilation (AID 1745844)
# test.settings: mouse; strain B6C3F1; males; in feed; site: thyroid gland; lesion: c-cell adenoma + c-cell carcinoma; dosed 103 weeks; study length 105 weeks
measured.property: TD50

Q: GET /values?readout=TD50&item= Nc1cccc2c(N)cccc12
A: 1260 mg/kg/day

====

# System: rodent lifetime carcinogenesis bioassay, tumor incidence TD50
# test.protocol: carcinogenic potency in animals, long-term in vivo studies, CPDB compilation (AID 1745844)
# test.settings: mouse; strain Swiss albino; females; in drinking water; site: blood vessels; lesion: angiosarcoma; dosed 82 weeks; study length 82 weeks
measured.property: TD50
Field note: include the unit after the figure.

Q: TD50 for CCNN ?
A: 27.6 mg/kg/day

====

# System: rodent lifetime carcinogenesis bioassay, tumor incidence TD50
# test.protocol: carcinogenic potency in animals, long-term in vivo studies, CPDB compilation (AID 1745844)
# test.settings: rat; strain Fischer 344; males; in feed; site: liver; lesion: hepatocellular adenoma + hepatocellular carcinoma; dosed 39 weeks; study length 66 weeks
measured.property: TD50 (mg/kg/day)
Write the answer as a number in mg/kg/day, unit excluded.

Q: State the recorded TD50 for this entry: Nc1c(Br)cc(Br)c2c1C(=O)c1ccccc1C2=O
A: 70.3

====

# System: rodent lifetime carcinogenesis bioassay, tumor incidence TD50
# test.protocol: carcinogenic potency in animals, long-term in vivo studies, CPDB compilation (AID 1745844)
# test.settings: mouse; strain B6C3F1; males; inhaled; site: lung; lesion: alveolar/bronchiolar adenoma + alveolar/bronchiolar carcinoma + adenocarcinoma; dosed 13 weeks; study length 104 weeks
measured.property: TD50

Q: Given the molecule C=CC=C , what is its reported TD50?
A: 8.59 mg/kg/day
